B1: TPPP (parent)
chain: LCKDCQVIDGRNVTVTDVDIVFSK

# Variants of: B1
# assay_info: protein stability index of a GFP-peptide fusion (GPS, HEK-293T) (PSI 1-6); higher = more stable;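 also: lentivirally expressed fusions sorted by FACS into six bins by GFP to DsRed ratio, PSI derived from sequencing read proportions per bin multiplied by bin number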
# measurement_context: c terminus: a fixed tail appended
readout: protein stability index

> print(dat)
    variant  endpoint.result
 1      I8H             2.43
 2     V18Y              2.6
 3      I8N             2.35
 4     D19G             2.08
 5     G10W             2.33
 6     N12A             2.57
 7     G10K             2.88
 8      C2G             3.37
 9      K3I             1.05
10     D19V             1.95
11      D4C             2.35
12     V13G             2.79
13      I8G             2.54
14     F22Y             2.84
15     V18Q             3.16
16     D19L             2.26
17      C5M             2.77
18      C5L             3.16
19     V13M             2.54
20      C5E             4.32
21      C5A             3.62
22      C2K             3.07
23      I8V             3.47
24      Q6L             1.97
25     D19F             2.45
26      D9G              2.1
27     G10N             2.39
28      D4V             1.82
29     V18R             3.06
30     F22I             2.09
31      I8C              2.3
32     D19Q             1.65
33     G10M             1.54
34      D4N             1.69
35     I20Y             2.63
36     V21T              3.2
37      K3Q             2.18
38     N12K             2.52
39     N12I             1.53
40      C2R             2.79
41     D17N             1.45
42     N12D             2.68
43      D4T             1.77
44     V15M             1.97
45      K3P             3.26
46     S23C             3.21
